- measurementProtocol: physchem
- assayConditions: buffer, pH 7.4
- Description: Lipophilicity, log D of the compound at pH 7.4
assayMetric: logD

COc1ccc(-n2nnnc2C(F)(F)F)cc1CN[C@H]1CCN(C(=O)CN(C)C(C)=O)C[C@H]1c1ccccc1 (racemic)	2.31
COc1ccc(-n2nnnc2C(F)(F)F)cc1CN[C@H]1CCN(C(=O)N(C)C)C[C@H]1c1ccccc1 (racemic)	3.18
COc1ccc(-n2nnnc2C(F)(F)F)cc1CN[C@H]1CCN(C(=O)CNC(C)=O)C[C@H]1c1ccccc1 (racemic)	2.28
CCNC(=O)N1CC[C@H](NCc2cc(-n3nnnc3C(F)(F)F)ccc2OC)[C@H](c2ccccc2)C1.Cl (racemic)	2.79
